- tgt: T1, O7-bA
- T1 chain: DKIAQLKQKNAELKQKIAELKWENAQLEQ
- test-summary: two-hybrid library CCNG1;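 note: natural log of median RNA to DNA barcode read ratio; higher means stronger binding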
Mark 1 (yes) for interaction score under -0.08, 0 (no) if at or over.

Criterion: interaction score strictly below -0.08. Is it met by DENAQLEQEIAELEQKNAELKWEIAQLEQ [O5-bA] ? 1 (yes)

Criterion: interaction score strictly below -0.08. Is it met by DKIAQLKQEIAELEQKNAELKWKNAQLKQ [O4-bA] ? 0 (no)

Criterion: interaction score strictly below -0.08. Is it met by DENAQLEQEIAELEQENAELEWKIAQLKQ [O14-bA] ? 0 (no)

Criterion: interaction score strictly below -0.08. Is it met by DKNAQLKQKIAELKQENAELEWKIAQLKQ [O6-bA] ? 0 (no)

Criterion: interaction score strictly below -0.08. Is it met by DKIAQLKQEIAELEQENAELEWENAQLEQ [O11-bA] ? 1 (yes)

Criterion: interaction score strictly below -0.08. Is it met by DEIAQLKQKNAELEQKNAELKWEIAQLEQ [4H953-bA] ? 1 (yes)

Criterion: interaction score strictly below -0.08. Is it met by DKIAQLKQKNAELKQKIAELKWENAQLEQ [O7-bA] ? 1 (yes)

Criterion: interaction score strictly below -0.08. Is it met by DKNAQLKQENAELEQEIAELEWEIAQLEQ [O1-bA] ? 1 (yes)
